Assay: Hygroscopicity by dynamic vapor sorption (DVS) at 25° C.
Format: physicochemical
Details: DVS 25° C., 40% RH, 2nd desorption
measurement_name: Desorp. (%)
Could you kindly put the unit after your number?

Recorded result, CCOc1cc(C(=O)N(C)Cc2cnc(CO)c3cn[nH]c23)ccc1-c1cc(F)cc(F)c1 [Free form Pattern A] , Desorp. (%): 3.83%

# Desorp. (%) of CCOc1cc(C(=O)N(C)Cc2cnc(CO)c3cn[nH]c23)ccc1-c1cc(F)cc(F)c1.O=P(O)(O)O [Phosphate salt Pattern A] = 0.23%

// recorded Desorp. (%) for CCOc1cc(C(=O)N(C)Cc2cnc(CO)c3cn[nH]c23)ccc1-c1cc(F)cc(F)c1.[Na] [Sodium salt Pattern A] : 0.94%

// Desorp. (%) lookup, molecule = CCOc1cc(C(=O)N(C)Cc2cnc(CO)c3cn[nH]c23)ccc1-c1cc(F)cc(F)c1.Cl [HCl salt Pattern A] , result: 0.42%

---

Experiment: Solubility at 37° C. in buffers and biorelevant media, XRPD of residual solid
Type: physicochemical
Conditions: FeSSIF-v1, pH 5.0, 37° C., 24 h
measurement_name: pH of supernatant at 24 h

# molecule, measured_result
measured = [
    ("CCOc1cc(C(=O)N(C)Cc2cnc(CO)c3cn[nH]c23)ccc1-c1cc(F)cc(F)c1.[Na] [Sodium salt Pattern A]", "(5.1)"),
    ("CCOc1cc(C(=O)N(C)Cc2cnc(CO)c3cn[nH]c23)ccc1-c1cc(F)cc(F)c1.Cl [HCl salt Pattern A]", "(4.9)"),
    ("CCOc1cc(C(=O)N(C)Cc2cnc(CO)c3cn[nH]c23)ccc1-c1cc(F)cc(F)c1 [Free form Pattern A]", "(5.0)"),
    ("CCOc1cc(C(=O)N(C)Cc2cnc(CO)c3cn[nH]c23)ccc1-c1cc(F)cc(F)c1.O=P(O)(O)O [Phosphate salt Pattern A]", "(4.9)"),
]

---

Test: Solubility at 37° C. in buffers and biorelevant media, XRPD of residual solid
Assay type: physicochemical
Details: aqueous buffer, thermodynamic from solid; pH 4.5 acetate buffer (50 mM), 37° C., 24 h
measurement_name: solubility at 24 h
Kindly format the answer as number then unit.

solubility at 24 h reported for this molecule CCOc1cc(C(=O)N(C)Cc2cnc(CO)c3cn[nH]c23)ccc1-c1cc(F)cc(F)c1.[Na] [Sodium salt Pattern A] : 7.4 µg/mL

// solubility at 24 h lookup, molecule = CCOc1cc(C(=O)N(C)Cc2cnc(CO)c3cn[nH]c23)ccc1-c1cc(F)cc(F)c1.O=P(O)(O)O [Phosphate salt Pattern A] , result: 11.8 µg/mL

CCOc1cc(C(=O)N(C)Cc2cnc(CO)c3cn[nH]c23)ccc1-c1cc(F)cc(F)c1.Cl [HCl salt Pattern A] yielded solubility at 24 h of 10 µg/mL

Sample CCOc1cc(C(=O)N(C)Cc2cnc(CO)c3cn[nH]c23)ccc1-c1cc(F)cc(F)c1 [Free form Pattern A] ; solubility at 24 h observed: 13.7 µg/mL

---

For each record, write down the corresponding solubility at 24 h.
Assay: Solubility at 37° C. in buffers and biorelevant media, XRPD of residual solid
Format: physicochemical
Conditions: simulated gastric fluid, thermodynamic from solid; pH 1.2 HCl buffer, 37° C., 24 h
Field: numeric (µg/mL). Do not append units.

Input CCOc1cc(C(=O)N(C)Cc2cnc(CO)c3cn[nH]c23)ccc1-c1cc(F)cc(F)c1 [Free form Pattern A] . Output solubility at 24 h: 402

Briefly, solubility at 24 h measured for CCOc1cc(C(=O)N(C)Cc2cnc(CO)c3cn[nH]c23)ccc1-c1cc(F)cc(F)c1.[Na] [Sodium salt Pattern A] : 511

Just so you know, measured solubility at 24 h for CCOc1cc(C(=O)N(C)Cc2cnc(CO)c3cn[nH]c23)ccc1-c1cc(F)cc(F)c1.O=P(O)(O)O [Phosphate salt Pattern A] came out at 390

The reported solubility at 24 h of the molecule CCOc1cc(C(=O)N(C)Cc2cnc(CO)c3cn[nH]c23)ccc1-c1cc(F)cc(F)c1.Cl [HCl salt Pattern A] was 277

---

Assay: Hygroscopicity by dynamic vapor sorption (DVS) at 25° C.
Assay type: physicochemical
Conditions: DVS 25° C., 95% RH, 1st sorption
measurement_name: Sorp. (%)
Respond numerically; units are % and should not be typed.

Entry CCOc1cc(C(=O)N(C)Cc2cnc(CO)c3cn[nH]c23)ccc1-c1cc(F)cc(F)c1.[Na] [Sodium salt Pattern A] , Sorp. (%) reported as 6.60

Kindly note the recorded Sorp. (%) for CCOc1cc(C(=O)N(C)Cc2cnc(CO)c3cn[nH]c23)ccc1-c1cc(F)cc(F)c1.O=P(O)(O)O [Phosphate salt Pattern A] , which is 0.82

Just so you know, measured Sorp. (%) for CCOc1cc(C(=O)N(C)Cc2cnc(CO)c3cn[nH]c23)ccc1-c1cc(F)cc(F)c1 [Free form Pattern A] came out at 4.61

For this compound ( CCOc1cc(C(=O)N(C)Cc2cnc(CO)c3cn[nH]c23)ccc1-c1cc(F)cc(F)c1.Cl [HCl salt Pattern A] ), measured Sorp. (%) is 2.20

---

Assay: Hygroscopicity by dynamic vapor sorption (DVS) at 25° C.
Assay type: physicochemical
Conditions: DVS 25° C., 90% RH, 2nd desorption
measurement_name: Desorp. (%)

The value of Desorp. (%) measured for the compound CCOc1cc(C(=O)N(C)Cc2cnc(CO)c3cn[nH]c23)ccc1-c1cc(F)cc(F)c1.Cl [HCl salt Pattern A] turned out to be 1.54%

Note to self: Desorp. (%) recorded for CCOc1cc(C(=O)N(C)Cc2cnc(CO)c3cn[nH]c23)ccc1-c1cc(F)cc(F)c1 [Free form Pattern A] was 4.33%

Record CCOc1cc(C(=O)N(C)Cc2cnc(CO)c3cn[nH]c23)ccc1-c1cc(F)cc(F)c1.[Na] [Sodium salt Pattern A] . Reported Desorp. (%): 4.35%

The reported value for CCOc1cc(C(=O)N(C)Cc2cnc(CO)c3cn[nH]c23)ccc1-c1cc(F)cc(F)c1.O=P(O)(O)O [Phosphate salt Pattern A] in terms of Desorp. (%) is 0.63%

---

Could you please report measured Desorp. (%) for the items listed next?
Test: Hygroscopicity by dynamic vapor sorption (DVS) at 25° C.
Type: physicochemical
Conditions: DVS 25° C., 10% RH, 1st desorption
Method: Dynamic vapor sorption (DVS) was performed on an Intrinsic, Advantage or Adventure with an oven temperature of 25° C. using water as a solvent. The sample mass was about 5-10 mg using the following method: • Cycle: 40-0-95-0-40% RH • Stage Step: 10% • Equilibrium: 0.002 dm/dt (%/min) • Minimum dm/dt stability duration: 60 min • Maximum dm/dt stage time: 360 min. Hygroscopicity of free form Pattern B was evaluated by dynamic vapor sorption (DVS) test at 25° C. […]
Expressed in %, but write only the number.

For CCOc1cc(C(=O)N(C)Cc2cnc(CO)c3cn[nH]c23)ccc1-c1cc(F)cc(F)c1.Cl [HCl salt Pattern A] the compound record lists Desorp. (%) as 0.61

The reported value for CCOc1cc(C(=O)N(C)Cc2cnc(CO)c3cn[nH]c23)ccc1-c1cc(F)cc(F)c1.O=P(O)(O)O [Phosphate salt Pattern A] in terms of Desorp. (%) is 0.12

Looking up CCOc1cc(C(=O)N(C)Cc2cnc(CO)c3cn[nH]c23)ccc1-c1cc(F)cc(F)c1 [Free form Pattern A] , I see its Desorp. (%) listed as 3.59

Form field Desorp. (%), entry CCOc1cc(C(=O)N(C)Cc2cnc(CO)c3cn[nH]c23)ccc1-c1cc(F)cc(F)c1.[Na] [Sodium salt Pattern A] : 0.20

---

Please go through the items and note down their solubility at 2 h.
Experiment: Solubility at 37° C. in buffers and biorelevant media, XRPD of residual solid
Format: physicochemical
Conditions: simulated gastric fluid, thermodynamic from solid; pH 1.2 HCl buffer, 37° C., 2 h
Give the number; µg/mL is assumed, so skip it.

get_value(item= CCOc1cc(C(=O)N(C)Cc2cnc(CO)c3cn[nH]c23)ccc1-c1cc(F)cc(F)c1.O=P(O)(O)O [Phosphate salt Pattern A] , readout=solubility at 2 h) returns 402

Lookup result for CCOc1cc(C(=O)N(C)Cc2cnc(CO)c3cn[nH]c23)ccc1-c1cc(F)cc(F)c1.[Na] [Sodium salt Pattern A] ; measured solubility at 2 h: 608

The recorded solubility at 2 h for CCOc1cc(C(=O)N(C)Cc2cnc(CO)c3cn[nH]c23)ccc1-c1cc(F)cc(F)c1 [Free form Pattern A] is 425

GET /value?item= CCOc1cc(C(=O)N(C)Cc2cnc(CO)c3cn[nH]c23)ccc1-c1cc(F)cc(F)c1.Cl [HCl salt Pattern A] &field=solubility at 2 h returns 362
